TARGET ENTITY: ER (Homo sapiens, UniProt P03372)
Construct: host or cells: T47D and MCF7 human breast cancer cells
PROCEDURE SUMMARY: ER degradation activity, in-cell western blot analysis in T47D cells
Format: cell-based
TEST CONTEXT: 16 hours, Table A does not say which cell line (T47D or MCF7), read-out: Potency (DC50)
ATTRIBUTE MEASURED: DC50

>>> result("C[C@@H]1Cc2c([nH]c3ccccc23)[C@@H](c2c(F)cc(-c3ncc(C(=O)N4CCC(N5Cc6cc7c(cc6C5)C(=O)N(C5CCC(=O)NC5=O)C7=O)CC4)cn3)cc2F)N1CC(F)F (some centres unmarked)")
"< 0.01 µM"
>>> result("O=C1CCC(N2C(=O)c3cc4c(cc3C2=O)CN([C@H]2CC[C@@H](NC3CCN(c5ccc([C@@H]6c7ccc(O)cc7CC[C@@H]6c6ccccc6)cc5)CC3)CC2)C4)C(=O)N1 (some centres unmarked)")
"> 0.1 µM"
>>> result("O=C1CCC(N2C(=O)c3cc4c(cc3C2=O)CN(C2CCC(CNC3CN(c5ccc([C@@H]6c7ccc(O)cc7CC[C@@H]6c6ccccc6)cc5)C3)CC2)C4)C(=O)N1 (some centres unmarked)")
"> 0.1 µM"
>>> result("O=C1CCC(N2C(=O)c3cc4c(cc3C2=O)CN(CC(=O)N2CC3(CCN(c5ccc([C@@H]6c7ccc(O)cc7CC[C@@H]6c6ccc(F)cc6)cc5)CC3)C2)CC4)C(=O)N1 (mixture of isomers)")
"0.01 to 0.1 µM"
>>> result("O=C1CCC(N2Cc3cc4c(cc3C2=O)CN(C(=O)CN2CCC3(CC2)CCN(c2ccc([C@@H]5c6ccc(O)cc6CC[C@@H]5c5ccccc5)cc2)CC3)C4)C(=O)N1 (some centres unmarked)")
"< 0.01 µM"
